- ASSAY_METHOD_TEXT: Acute toxicity, oral
- Assay type: in vivo, Hann.-Wistar rats
- CONDITION_NOTES: rat, in vivo, po; footnote to Table 3
MEASURED_ENDPOINT: LD50
Provide the measurement as a number trailed by its unit.

Consider the molecule shown here: CCC1(c2ccccc2)C(=O)NC(=O)NC1=O [phenobarbital, reference compound] What is its recorded LD50?
254 mg/kg
